# PROCEDURE TEXT: endothelial E-selectin expression blockers – imaging, HUVEC, immunofluorescence, MLSMR starter and 10KST1 sets, primary screen (AID 487);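 further: 100% = median nuclei count of all wells on the same plate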
# MEASUREMENT SETUP: HUVEC TNFalpha-induced E-selectin immunofluorescence imaging, at 2 µM; measured here: cell number, toxicity
# nuclei count listing for each entry below
Write down the numeric answer in % and omit the unit.

Here is how some compounds turned out for nuclei count.
COCCn1c(Sc2nc(C)cs2)nc2c1c(=O)[nH]c(=O)n2C    78.1
CN1C(=O)C(O)(CC(=O)c2ccccc2O)c2cc(Br)ccc21 (stereo not drawn)    124
Oc1cccc(Nc2nc(NCC3CCCO3)c3ccccc3n2)c1 (stereo not drawn)    104

### Prompt Read off the recorded nuclei count for CC(=O)N(c1ccc(Br)cc1)C1C=CS(=O)(=O)C1 (stereo not drawn)
### Response 102

### Prompt Identify measured nuclei count corresponding to "CCN1C(=C2C(=O)c3ccccc3C2=O)C=Cc2ccccc21"
### Response 117

### Prompt Please list nuclei count recorded for the compound "O=C(CSc1nnc(SCc2ccc(Cl)cc2)s1)N1CCN(C(=O)c2ccco2)CC1"
### Response 152

### Prompt Please supply the value of reported nuclei count for the item "O=C(CSc1nc2ccccc2c(=O)n1Cc1ccco1)NCc1ccccc1"
### Response 103

### Prompt Answer with the recorded nuclei count for the compound listed here: "CCOc1cc(N2CCOCC2)c(OCC)cc1NC(=O)CSc1cccc[n+]1[O-]"
### Response 115

### Prompt Please report nuclei count for the following compound: "COc1ccc(-c2cc(C(=O)N3CCN(Cc4ccccc4)CC3)no2)cc1OC"
### Response 112

### Prompt Identify measured nuclei count corresponding to Cc1cc(OCC(O)CN2CCN(CCO)CC2)ccc1C(C)C (stereo not drawn)
### Response 93.2

====

# PROCEDURE TEXT: endothelial E-selectin expression blockers – imaging, HUVEC, immunofluorescence, MLSMR starter and 10KST1 sets, primary screen (AID 487);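 further: 100% = median nuclei count of all wells on the same plate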
# MEASUREMENT SETUP: HUVEC TNFalpha-induced E-selectin immunofluorescence imaging, at 2 µM; measured here: cell number, toxicity
READOUT TYPE: nuclei count (%)
Reply with just the number (in %).

Look over these answered cases.
Cc1onc(-c2ccccc2Cl)c1C(=O)Nc1cccc(-c2cn3cccnc3n2)c1    109
COC(=O)COc1nc(C)c(Br)c(OC)n1    110
CCCCN(CCCC)C(=O)CN(C)S(=O)(=O)c1ccc2c(c1)n(C)c(=O)c(=O)n2C    121
COc1ccc(C2CC(c3ccc(C)cc3)Nc3ncnn32)cc1 (stereo unspecified)    98.3
CSc1nc2ccc(S(=O)(=O)N3CCOCC3)cc2s1    129
O=C1CN(C(=O)COC(=O)C23CC4CC(CC(O)(C4)C2)C3)c2ccccc2N1    102

### Prompt Could you please provide reported nuclei count for C=CCOC(=O)C1=C(C)NC(=O)NC1c1cn(-c2ccccc2)nc1-c1cccs1 (stereo unspecified) ? Thanks!
### Response 110

### Prompt Please report the measured nuclei count for "Cc1cnc(C(=O)Nc2ccc(N3CCOCC3)cc2)cn1"
### Response 101

### Prompt Give reported nuclei count value for "O=C(COC(=O)c1cc(S(=O)(=O)N2CCOCC2)cs1)c1ccccc1"
### Response 114

### Prompt Using known records, supply nuclei count for CCC(Sc1ccc2nnc(-c3ccc(F)cc3)n2n1)C(=O)OC (stereo unspecified)
### Response 117

### Prompt Look up nuclei count of c1cncc(C2Nc3ccccc3-c3nc4ccccc4n32)c1 (stereo unspecified) and report it.
### Response 116
